The reader will find reported shrunken log2 fold change values listed item by item below.
Tested on: Escherichia coli TOP10;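 further: peptides expressed intracellularly from a pBAD plasmid library in pooled LB shake-flask culture, induced with 0.3% L-arabinose, DNA abundance read by NGS, three biological replicates, DESeq2 with apeglm shrinkage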
METHOD_DESCRIPTION: shrunken log2 fold change of peptide-encoding DNA abundance (4.5 h post-induction vs induction); higher = less antimicrobial activity (less host growth inhibition)
CONDITION_INFO: time post-induction: 4.5 h; library: site-saturation at positions 5, 18, 19, 20
VALUE_KIND: shrunken log2 fold change

>>> recorded_measurement("RRIRVRPPRLPRPRPRPIATPRP")
0.141
>>> recorded_measurement("RRIRMRPPRLPRPRPRPGPKPRP")
1.81
>>> recorded_measurement("RRIRARPPRLPRPRPRPQPQPRP")
0.436
>>> recorded_measurement("RRIRCRPPRLPRPRPRPQLQPRP")
0.0481
